Reported pEC50 is given for each of the following compounds.
target_or_system: human β3-adrenergic receptor (Homo sapiens, UniProt P13945)
Construct: Full length β3 AR clones (402 amino acids) containing the last 6 amino acids of hβ3—AR are prepared; expressed in transfected cells; host or cells: CHO cells
Sequence (P13945 whole entry): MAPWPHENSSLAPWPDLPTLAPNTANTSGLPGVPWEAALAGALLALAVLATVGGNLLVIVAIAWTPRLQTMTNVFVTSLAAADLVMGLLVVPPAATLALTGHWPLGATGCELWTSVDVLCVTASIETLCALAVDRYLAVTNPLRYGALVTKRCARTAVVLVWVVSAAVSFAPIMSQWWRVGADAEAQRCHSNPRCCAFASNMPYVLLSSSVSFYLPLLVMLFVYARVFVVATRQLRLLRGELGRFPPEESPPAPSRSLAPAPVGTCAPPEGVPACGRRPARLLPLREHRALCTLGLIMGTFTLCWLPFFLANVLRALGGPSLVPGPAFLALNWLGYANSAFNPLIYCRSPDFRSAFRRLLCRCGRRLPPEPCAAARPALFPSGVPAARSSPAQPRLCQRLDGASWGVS
test_summary: cAMP response (SPA kit) in CHO cells transfected with human β3 adrenergic receptor
Format: cell-based
experimental_setup: CHO cells expressing human β3-AR; 10^-9 M to 10^-5 M; 30 min at 37° C.; cAMP by SPA; read-out: EC50(β3)
Entry type: numeric. Quantity: pEC50, the -log10 of concentration in molar units.

Consider the reported pEC50 for these compounds:
[[record]]
compound = "CCNC(=O)N1CCC(Nc2ccc(CCNC[C@H](O)COc3ccc(O)cc3)cc2)CC1 [Example 10]"
property_measured = "pEC50"
obs_value = 7.37

[[record]]
compound = "COc1c(C(=O)N2CCC(Nc3ccc(CCNC[C@H](O)COc4ccc(O)cc4)cc3)CC2)sc2ccccc12 [Example 97]"
property_measured = "pEC50"
obs_value = 7.47

[[record]]
compound = "Cc1ccsc1C(=O)N1CCC(Sc2ccc(CCNC[C@H](O)COc3ccc(O)cc3)cc2)CC1 [Example 106]"
property_measured = "pEC50"
obs_value = 6.90

[[record]]
compound = "O=C(NCc1ccc(F)cc1)N1CCC(Nc2ccc(OCCNC[C@H](O)COc3ccc(O)cc3)cc2)CC1 [Example 39]"
property_measured = "pEC50"
obs_value = 7.44

[[record]]
compound = "CCCCCCCCNC(=O)N1CCC(Nc2ccc(CCNC[C@H](O)COc3ccc(O)c(NS(C)(=O)=O)c3)cc2)CC1 [Example 66]"
property_measured = "pEC50"
obs_value = 6.70


Lookup: Any idea what pEC50 was measured for CC(=O)Nc1nc(C)c(S(=O)(=O)N2CCC(Nc3ccc(CCNC[C@H](O)c4ccc(O)c(NS(C)(=O)=O)c4)cc3)CC2)s1 [Example 115] ?
Found: 7.89

Lookup: What measured pEC50 goes with CCCCCCCCNC(=O)N1CCC(N(C(C)=O)c2ccc(CCNC[C@H](O)COc3ccc(O)cc3)cc2)CC1 [Example 8] ?
Found: 7.19

###

IA(β3) by entry:
target_or_system: human β3-adrenergic receptor (Homo sapiens, UniProt P13945)
Construct: Full length β3 AR clones (402 amino acids) containing the last 6 amino acids of hβ3—AR are prepared; expressed in transfected cells; host or cells: CHO cells
test_summary: cAMP response (SPA kit) in CHO cells transfected with human β3 adrenergic receptor
Type: cell-based
experimental_setup: maximal response of compound compared to maximal response of isoproterenol at 10^-5 M; CHO cells, human β3-AR
// no unit string in output, number only

[[record]]
structure_as_smiles = "Oc1ccc(OC[C@@H](O)CNCCc2ccc(NC3CCN(c4nc(-c5ccccc5)cs4)CC3)cc2)cc1"
property_measured = "IA(β3)"
obs_value = 1.1


Lookup: Using the record for `O=C(NCCCc1cccs1)N1CCC(Nc2ccc(CCNC[C@H](O)COc3ccc(O)cc3)cc2)CC1` , report its IA(β3).
Found: 0.88

Lookup: Quick check: IA(β3) of `O=C(NCc1cc(F)ccc1F)N1CCC(Nc2ccc(CCNC[C@H](O)COc3ccc(O)cc3)cc2)CC1` ?
Found: 0.92

Lookup: Any idea what its IA(β3) is? The compound is `CS(=O)(=O)Nc1cc([C@@H](O)CNCCc2ccc(NC3CCN(c4nc(-c5ccccc5)cs4)CC3)cc2)ccc1O`
Found: 0.96

Lookup: # query: IA(β3) of entry `CN(C)C(=O)Oc1ccc(CCNC(=O)N2CCC(Nc3ccc(CCNC[C@H](O)COc4ccc(O)cc4)cc3)CC2)cc1`
Found: 0.88

Lookup: GET /values?readout=IA(β3)&item= `O=C(NCc1ccc(F)cc1)N1CCC(Nc2ccc(CCNC[C@H](O)COc3cccc(O)c3)cc2)CC1`
Found: 0.82

Lookup: Look up IA(β3) for this compound: `CS(=O)(=O)Nc1cc([C@@H](O)CNCCc2ccc(NC3CCN(C(=O)c4ccc(C(=O)O)cc4)CC3)cc2)ccc1O`
Found: 1
